# protocol.text: AUC (0 to t) in Sprague-Dawley rat at 1 mg/kg, iv by LC-MS analysis
# Assay type: ADME, organism-based
# experimental.parameters: in vivo
property.label: AUC(0-t) (ng·h/mL)
# unit: ng·h/mL | format: bare number

Consider the compound NC(=O)c1c(NC(=O)c2ccccc2Cl)sc2c1CCN(C(=S)Nc1ccccc1Cl)C2 and give its measured AUC(0-t). 1840

* * *

# assayed.system: Mitogen-activated protein kinase 3 (Homo sapiens) (UniProt P27361)
# Sequence (P27361 whole entry): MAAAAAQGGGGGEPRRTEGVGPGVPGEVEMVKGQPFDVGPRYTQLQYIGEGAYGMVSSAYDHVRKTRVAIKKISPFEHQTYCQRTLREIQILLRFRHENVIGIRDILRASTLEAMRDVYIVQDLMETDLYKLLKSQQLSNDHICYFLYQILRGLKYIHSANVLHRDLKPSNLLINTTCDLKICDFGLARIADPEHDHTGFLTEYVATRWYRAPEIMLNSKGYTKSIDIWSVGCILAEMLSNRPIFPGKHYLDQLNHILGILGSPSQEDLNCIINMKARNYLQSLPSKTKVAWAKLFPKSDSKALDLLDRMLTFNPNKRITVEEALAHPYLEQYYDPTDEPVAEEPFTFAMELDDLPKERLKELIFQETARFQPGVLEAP
# protocol.text: Inhibition of ERK1 (unknown origin) at 1 uM by Z'-Lyte assay relative to control
property.label: inhibition

Give the measured inhibition of Cc1ccccc1NC(=S)N1CCc2c(sc(NC(=O)c3ccccc3Br)c2C(N)=O)C1 . 65.1%

Quick check: inhibition of NC(=O)c1c(NC(=O)c2ccc(C(F)(F)F)cc2)sc2c1CCN(Cc1ccc(Cl)cc1)C2 ? 47.8%

* * *

# assayed.system: Mitogen-activated protein kinase 7 (Homo sapiens) (UniProt Q13164)
# Sequence (Q13164 2-816 limits assumed): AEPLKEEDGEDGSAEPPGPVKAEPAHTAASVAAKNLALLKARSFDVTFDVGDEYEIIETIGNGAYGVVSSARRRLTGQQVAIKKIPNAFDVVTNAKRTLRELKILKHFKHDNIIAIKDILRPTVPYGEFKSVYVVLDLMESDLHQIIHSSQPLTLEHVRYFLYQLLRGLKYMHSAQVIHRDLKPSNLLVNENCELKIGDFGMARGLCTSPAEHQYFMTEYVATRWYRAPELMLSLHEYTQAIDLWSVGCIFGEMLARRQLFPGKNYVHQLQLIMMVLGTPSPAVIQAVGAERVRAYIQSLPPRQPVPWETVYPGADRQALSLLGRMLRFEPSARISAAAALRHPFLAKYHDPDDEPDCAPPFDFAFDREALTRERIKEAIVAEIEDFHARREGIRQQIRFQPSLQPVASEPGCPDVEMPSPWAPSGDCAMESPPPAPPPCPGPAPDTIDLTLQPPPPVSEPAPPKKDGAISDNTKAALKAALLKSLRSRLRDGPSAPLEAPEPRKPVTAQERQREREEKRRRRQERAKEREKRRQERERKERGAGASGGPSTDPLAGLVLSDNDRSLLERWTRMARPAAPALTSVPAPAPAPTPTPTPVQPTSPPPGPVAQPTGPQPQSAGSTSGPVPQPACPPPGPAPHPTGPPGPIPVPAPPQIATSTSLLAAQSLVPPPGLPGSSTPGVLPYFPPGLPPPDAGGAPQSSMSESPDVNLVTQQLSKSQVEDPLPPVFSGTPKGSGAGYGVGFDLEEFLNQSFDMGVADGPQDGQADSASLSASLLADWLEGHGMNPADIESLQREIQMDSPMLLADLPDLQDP
# protocol.text: Inhibition of ERK5 (unknown origin) at 1 uM by Z'-Lyte assay relative to control
// reported inhibition per item
Answer in %, number only, no unit symbol.

Please review the following examples before continuing.
compound_structure_string=Cc1ccccc1C(=O)Nc1sc2c(c1C(N)=O)CCN(C(=S)Nc1ccccc1C(F)(F)F)C2 reported_value=60.1
compound_structure_string=COc1ccccc1C(=O)Nc1sc2c(c1C(N)=O)CCN(C(=S)Nc1ccccc1Cl)C2 reported_value=53.5
compound_structure_string=NC(=O)c1c(NC(=O)c2ccc(C(F)(F)F)cc2)sc2c1CCN(Cc1ccccc1F)C2 reported_value=56.8
compound_structure_string=NC(=O)c1c(NC(=O)c2cccc([N+](=O)[O-])c2)sc2c1CCN(C(=S)Nc1cc(C(F)(F)F)cc(C(F)(F)F)c1)C2 reported_value=82.9
compound_structure_string=Cc1ccccc1C(=O)Nc1sc2c(c1C(N)=O)CCN(C(=S)Nc1ccccc1Cl)C2 reported_value=53

Please report the recorded inhibition for NC(=O)c1c(NC(=O)c2ccc(C(F)(F)F)cc2)sc2c1CCN(Cc1ccc(Cl)cc1)C2 . 61.1

If you can, please state the reported inhibition value of Cc1ccccc1NC(=S)N1CCc2c(sc(NC(=O)c3ccccc3Cl)c2C(N)=O)C1 . 59.3

Looking for the measured inhibition of COc1ccccc1NC(=S)N1CCc2c(sc(NC(=O)c3ccccc3C(F)(F)F)c2C(N)=O)C1 , can you help? 61.7

Endpoint output: inhibition of NC(=O)c1c(NC(=O)c2ccccc2Cl)sc2c1CCN(C(=S)Nc1ccccc1Cl)C2 . Value? 89.3

If you can, please state the reported inhibition value of NC(=O)c1c(NC(=O)c2ccccc2Cl)sc2c1CCN(C(=S)Nc1ccccc1C(F)(F)F)C2 . 76.6

Fill blank: measured inhibition of the compound NC(=O)c1c(NC(=O)c2ccc(C(F)(F)F)cc2)sc2c1CCN(Cc1c(Cl)cccc1Cl)C2 is ____. 38.7

* * *

# assayed.system: Mitogen-activated protein kinase 1 (Homo sapiens)
# protocol.text: Inhibition of ERK2 (unknown origin) at 1 uM by Z'-Lyte assay relative to control
This listing pairs compounds with measured inhibition.
Report only the number, with the unit % understood.

Some entries whose results are on file:
compound_structure_string=Cc1ccc(C(=O)Nc2sc3c(c2C(N)=O)CCN(Cc2c(Cl)cccc2Cl)C3)cc1 assayed_system="Mitogen-activated protein kinase 1 (Homo sapiens)" reported_value=45.4
compound_structure_string=NC(=O)c1c(NC(=O)c2ccc(C(F)(F)F)cc2)sc2c1CCN(C(=S)Nc1cc(C(F)(F)F)cc(C(F)(F)F)c1)C2 assayed_system="Mitogen-activated protein kinase 1 (Homo sapiens)" reported_value=66
compound_structure_string=NC(=O)c1c(NC(=O)c2ccccc2Cl)sc2c1CCN(Cc1ccccc1F)C2 assayed_system="Mitogen-activated protein kinase 1 (Homo sapiens)" reported_value=71.6
compound_structure_string=NC(=O)c1c(NC(=O)c2ccccc2Cl)sc2c1CCN(C(=O)Nc1c(Cl)cccc1Cl)C2 assayed_system="Mitogen-activated protein kinase 1 (Homo sapiens)" reported_value=85
compound_structure_string=Cc1ccc(C(=O)Nc2sc3c(c2C(N)=O)CCN(C(=O)Nc2ccccc2Cl)C3)cc1 assayed_system="Mitogen-activated protein kinase 1 (Homo sapiens)" reported_value=71.9

Item NC(=O)c1c(NC(=O)c2ccc(C(F)(F)F)cc2)sc2c1CCN(C(=S)Nc1ccc(C(F)(F)F)cc1)C2 with Mitogen-activated protein kinase 1 (Homo sapiens) - inhibition? 79.7

Param readout= inhibition; system= Mitogen-activated protein kinase 1 (Homo sapiens); entry= NC(=O)c1c(NC(=O)c2ccccc2C(F)(F)F)sc2c1CCN(C(=S)Nc1ccccc1Cl)C2 ; returns value. 80.9

Lab note: need inhibition with Mitogen-activated protein kinase 1 (Homo sapiens) for entry COc1ccc(NC(=S)N2CCc3c(sc(NC(=O)c4ccccc4Cl)c3C(N)=O)C2)cc1 , please look it up. 68.7

Request: inhibition, test system Mitogen-activated protein kinase 1 (Homo sapiens), entry NC(=O)c1c(NC(=O)c2ccccc2Cl)sc2c1CCN(C(=S)Nc1ccccc1Cl)C2 92.7

Item COc1ccccc1NC(=S)N1CCc2c(sc(NC(=O)c3ccccc3I)c2C(N)=O)C1 with Mitogen-activated protein kinase 1 (Homo sapiens) - inhibition? 59.6

Lookup: inhibition / Mitogen-activated protein kinase 1 (Homo sapiens) / COc1ccccc1NC(=S)N1CCc2c(sc(NC(=O)c3ccccc3OC)c2C(N)=O)C1 48.7

# value lookup — system Mitogen-activated protein kinase 1 (Homo sapiens), readout inhibition, item NC(=O)c1c(NC(=O)c2ccccc2F)sc2c1CCN(C(=O)Nc1ccccc1Cl)C2 62.4

* * *

# assayed.system: Mitogen-activated protein kinase 3 (Homo sapiens)
# protocol.text: Inhibition of ERK1 (unknown origin) at 1 uM by Z'-Lyte assay relative to control
Decision: inhibition >= 70% yields met, all other cases yield not met.

Answered cases to consult:
compound_structure_string=NC(=O)c1c(NC(=O)c2ccccc2Cl)sc2c1CCN(Cc1ccc(Cl)cc1)C2 assayed_system="Mitogen-activated protein kinase 3 (Homo sapiens)" answer_label="not met"
compound_structure_string=COc1ccccc1NC(=S)N1CCc2c(sc(NC(=O)c3ccccc3C(F)(F)F)c2C(N)=O)C1 assayed_system="Mitogen-activated protein kinase 3 (Homo sapiens)" answer_label=met
compound_structure_string=NC(=O)c1c(NC(=O)c2ccccc2Cl)sc2c1CCN(C(=S)Nc1c(Cl)cccc1Cl)C2 assayed_system="Mitogen-activated protein kinase 3 (Homo sapiens)" answer_label=met

Form field: inhibition at least 70%? Entry: CSc1ccccc1C(=O)Nc1sc2c(c1C(N)=O)CCN(C(=S)Nc1ccccc1Cl)C2 not met

Please tell me: is the compound NC(=O)c1c(NC(=O)c2ccccc2Cl)sc2c1CCN(C(=S)Nc1ccc(C(F)(F)F)cc1)C2 at or over 70% in terms of inhibition? met

For this compound, is measured inhibition 70% or higher? Cc1ccc(C(=O)Nc2sc3c(c2C(N)=O)CCN(Cc2ccc(Cl)cc2Cl)C3)cc1 not met

* * *

# assayed.system: Mitogen-activated protein kinase 3 (Homo sapiens)
# protocol.text: Inhibition of ERK1 (unknown origin) at 1 uM by Z'-Lyte assay relative to control
property.label: inhibition (%)
Could you give me the number in %? Just the number is fine.

Check out these entries, answers already filled in.
compound_structure_string=NC(=O)c1c(NC(=O)c2ccncn2)sc2c1CCN(C(=S)Nc1ccccc1Cl)C2 property_label=inhibition reported_value=48.5
compound_structure_string=CSc1ccccc1NC(=S)N1CCc2c(sc(NC(=O)c3ccccc3Cl)c2C(N)=O)C1 property_label=inhibition reported_value=69.5

Form entry - test system: Mitogen-activated protein kinase 3 (Homo sapiens); read-out: inhibition; compound: NC(=O)c1c(NC(=O)c2ccccc2Cl)sc2c1CCN(C(=S)Nc1cccnc1)C2 41.9

Lab note: need inhibition with Mitogen-activated protein kinase 3 (Homo sapiens) for entry Cc1ccc(C(=O)Nc2sc3c(c2C(N)=O)CCN(Cc2c(Cl)cccc2Cl)C3)cc1 , please look it up. 42.8

* * *

# assayed.system: Mitogen-activated protein kinase 7 (Homo sapiens) (UniProt Q13164)
# protocol.text: Inhibition of ERK5 (unknown origin) at 1 uM by Z'-Lyte assay relative to control
# inhibition listing for each entry below
Use % as the unit, but write only the number.

Before answering, review these 5 worked examples.
compound_structure_string=NC(=O)c1c(NC(=O)c2ccccc2Cl)sc2c1CCN(C(=S)Nc1cccc3ccccc13)C2 reported_value=72.5
compound_structure_string=NC(=O)c1c(NC(=O)c2ccccc2Cl)sc2c1CCN(C(=S)Nc1c(Cl)cccc1Cl)C2 reported_value=88
compound_structure_string=NC(=O)c1c(NC(=O)c2ccccc2Cl)sc2c1CCN(Cc1ccccc1F)C2 reported_value=37.9
compound_structure_string=NC(=O)c1c(NC(=O)c2ccccc2)sc2c1CCN(C(=S)Nc1ccccc1)C2 reported_value=61.4
compound_structure_string=NC(=O)c1c(NC(=O)c2ccc(C(F)(F)F)cc2)sc2c1CCN(C(=S)Nc1cc(C(F)(F)F)cc(C(F)(F)F)c1)C2 reported_value=54.2

Notebook entry, Mitogen-activated protein kinase 7 (Homo sapiens) (UniProt Q13164) assay: inhibition of NC(=O)c1c(NC(=O)c2cccc([N+](=O)[O-])c2)sc2c1CCN(Cc1ccc(Cl)cc1Cl)C2 = ? 77.9

Checklist item: inhibition tested on Mitogen-activated protein kinase 7 (Homo sapiens) (UniProt Q13164), entry NC(=O)c1c(NC(=O)c2cccc([N+](=O)[O-])c2)sc2c1CCN(C(=O)Nc1ccccc1Cl)C2 , value? 65.7

Form entry - test system: Mitogen-activated protein kinase 7 (Homo sapiens) (UniProt Q13164); read-out: inhibition; molecule: NC(=O)c1c(NC(=O)c2ccccc2Cl)sc2c1CCN(Cc1ccc(Cl)cc1)C2 47

Look up inhibition with Mitogen-activated protein kinase 7 (Homo sapiens) (UniProt Q13164) for this molecule: NC(=O)c1c(NC(=O)c2ccccc2Cl)sc2c1CCN(Cc1ccc([N+](=O)[O-])cc1)C2 65

Kindly state the measured inhibition obtained for NC(=O)c1c(NC(=O)c2ccccc2C(F)(F)F)sc2c1CCN(C(=S)Nc1ccccc1F)C2 with Mitogen-activated protein kinase 7 (Homo sapiens) (UniProt Q13164). 86.5

GET /values?readout=inhibition&system=Mitogen-activated protein kinase 7 (Homo sapiens) (UniProt Q13164)&item= NC(=O)c1c(NC(=O)c2ccccc2Cl)sc2c1CCN(C(=S)Nc1ccccc1-c1ccccc1)C2 40.5

Provenance of the data: ChEMBL document CHEMBL4342467
